Below is a list of entries, each paired with its recorded GFP response vs DMSO value.
assay-notes: RPL19A-GFP modulators, yeast TOR pathway, confirmation, cell-based, S. cerevisiae, flow cytometry, cherry picks, mother/daughter gates (AID 2270)
condition-label: S. cerevisiae RPL19A-GFP strain, 3 h, measured here: daughter cell gate, at 10 µM, stronger effect = lower value, 100 = same GFP as DMSO wells
Value expressed in %; do not type the unit.

compound=CCOC(=O)c1ccc(NC(=O)c2nc(S(=O)(=O)Cc3ccccc3)ncc2Cl)cc1 parameter="GFP response vs DMSO" result_units=% reported=99

(Q) Entry under review: CCCc1[nH]nc2c1C(c1ccc(OCCN3CCOCC3)c(OCC)c1)C(C#N)=C(N)O2 (centres undefined) . Reported GFP response vs DMSO?
(A) 98.4

(Q) Entry under review: CCCc1[nH]nc2c1C(c1ccc(O)c(OC)c1)C(C#N)=C(N)O2 (centres undefined) . Reported GFP response vs DMSO?
(A) 101

(Q) Form field: reported GFP response vs DMSO of COc1ccc(C(=O)/C=C2/C(=O)Nc3ccccc32)c(OC)c1
(A) 96.7

(Q) GFP response vs DMSO for O=C1C2C3C=CC(CO)(O3)C2C(=O)N1c1ccc(-c2ccccc2)cc1 (centres undefined) ?
(A) 103

###

experimental-system: ATP-binding cassette sub-family B member 6 (Homo sapiens)
assay-notes: ABCB6 transporter inhibitors, pilot screen, K562-ABCB6 cells, flow cytometry, validation set (AID 588550);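 also: 0% = DMSO wells and 100% = benzethonium chloride 70 µM positive control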
condition-label: K562-ABCB6 porphyrin accumulation, 1 h, at 10 µM, stronger effect = higher value
# label = criterion met if inhibition >= 10% else criterion not met

compound=CCc1cc(=O)oc2cc(OCC=C(C)C)ccc12 experimental_system="ATP-binding cassette sub-family B member 6 (Homo sapiens)" class_name="criterion not met"
compound=COc1ccc2nc(NC(=O)Nc3ccccc3)sc2c1 experimental_system="ATP-binding cassette sub-family B member 6 (Homo sapiens)" class_name="criterion not met"
compound=CCC1(c2ccccc2)C(=O)NCNC1=O experimental_system="ATP-binding cassette sub-family B member 6 (Homo sapiens)" class_name="criterion not met"
compound=C=C(CC)C(=O)c1ccc(OCC(=O)O)c(Cl)c1Cl experimental_system="ATP-binding cassette sub-family B member 6 (Homo sapiens)" class_name="criterion not met"
compound="O=C(Nc1ccccc1)OCC1CCCN2CCCCC12 (stereo not drawn)" experimental_system="ATP-binding cassette sub-family B member 6 (Homo sapiens)" class_name="criterion met"

(Q) Has COC(=O)C1=C(C)NC(C)=C(C(=O)OC)C1c1ccccc1[N+](=O)[O-] a recorded inhibition greater than or equal to 10%?
(A) criterion met

(Q) Determine whether measured inhibition meets or exceeds 10% for CC(=O)O[C@H]1CSC[C@H]1NC(=O)c1ccccc1
(A) criterion met

###

assay-notes: LAP4-GFP expression modulators in yeast, confirmation, cell-based, cherry picks, flow cytometry, mother/daughter gates (AID 2271);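 also: ratio of sample to DMSO plate mean so 100% equals DMSO level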
condition-label: S. cerevisiae LAP4-GFP strain, 3 h, measured here: mother cell gate response, at 10 µM, stronger effect = higher value, 100 means same as DMSO control
parameter: GFP response relative to DMSO (%)
Form entry: value (%) — number only.

structure_smiles=Oc1ccc(-c2csc(-c3ccccc3)n2)cc1O result_units=% reported=129
structure_smiles=O=S(=O)(/N=C(/Nc1ccc(F)cc1F)c1ccc(Cl)cc1)c1ccccc1 result_units=% reported=96.5

Turning to the following compound.
(Q) # input compound: COC(=O)c1cc(S(=O)(=O)Nc2nn(C)c3ccccc23)oc1C ; wanted: its GFP response relative to DMSO
(A) 94

###

Reported GFP response vs DMSO values for a set of compounds
assay-notes: modulators of MEP2-GFP levels in yeast, confirmation, S. cerevisiae, flow cytometry GFP, cherry picks (AID 2272);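 also: ratio of well signal to plate DMSO mean so 100% equals DMSO level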
condition-label: S. cerevisiae MEP2-GFP strain, 3 h, at 10 µM, stronger effect = higher value
Answer in %, number only, no unit symbol.

Example results:
compound=COc1ccc(C(=O)c2nccc3ccccc23)cc1 parameter="GFP response vs DMSO" reported=96.2
compound=COc1cccc(CNC(=O)CCC(=O)N2Cc3cccc(OC)c3Oc3ncccc32)c1OC parameter="GFP response vs DMSO" reported=102
compound=Cc1ccc(C=C2C(Cl)=C(Cl)C(Cl)=C2Cl)cc1 parameter="GFP response vs DMSO" reported=114
compound=Clc1ccc(-c2nnnn2-c2ccc(Cl)cc2)cc1 parameter="GFP response vs DMSO" reported=99.3
compound=N#C/C(=C\c1c(N2CCCCC2)nc2ccccn2c1=O)C(=O)NCc1ccco1 parameter="GFP response vs DMSO" reported=97.5
compound=CCN(CC)c1ccc(/C=C/c2ccc3ccc(OC)cc3[n+]2CC)cc1 parameter="GFP response vs DMSO" reported=133
compound=Cc1ccc(C)c(N2CCN(C(=O)c3ccccc3Br)CC2)c1 parameter="GFP response vs DMSO" reported=109
compound=CC1=C/C(=N\OS(=O)(=O)c2ccccc2)C(C)=CC1=O parameter="GFP response vs DMSO" reported=118

(Q) What GFP response vs DMSO value was documented for this compound, CCOc1cc(N2CCOCC2)c(OCC)cc1NC(=O)C(NC(=O)c1ccco1)C(C)C (stereo not drawn) ?
(A) 107

(Q) // query GFP response vs DMSO value for entry O=C(Nc1cc(Sc2ccccn2)cc([N+](=O)[O-])c1)c1cccc(F)c1
(A) 106

(Q) State the recorded GFP response vs DMSO for this entry: CCc1ccc2c(c1)C1(NN=C(c3cccc4ccccc34)S1)C(=O)N2 (stereo not drawn)
(A) 97.2

###

assay-notes: yeast TOR pathway RPL19A-GFP modulators, primary screen, cell-based, S. cerevisiae, multiplex flow cytometry (AID 1862);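 also: lower values mimic rapamycin by blocking the RPL19A rise seen in DMSO cells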
condition-label: S. cerevisiae RPL19A-GFP strain, flow cytometry fluorescence, 3 h; at 10 µM; stronger effect = lower value
Results filed as inconclusive are left out.
Measured percent of DMSO control GFP by item
Answer in %, number only, no unit symbol.

compound=O=C1C=CC(=O)C(C2=C3C(=O)N(CCc4ccccc4)CC(=O)N3CCC2)=C1 parameter="percent of DMSO control GFP" reported=106
compound="CCOC(=O)NN1C(=O)c2ccccc2NC1c1ccc(OC)c(OC)c1 (configuration not stated)" parameter="percent of DMSO control GFP" reported=95.1
compound="CC1(C)C2CCC1(C)C(OCC[N+](C)(C)CC(=O)OC1CCCCC1)C2 (configuration not stated)" parameter="percent of DMSO control GFP" reported=88
compound=CNCCCN1c2ccccc2CCc2ccccc21 parameter="percent of DMSO control GFP" reported=93.3
compound="CCOC(=O)c1c(C)oc2cc(Br)c(OC(C)C(=O)OCC)cc12 (configuration not stated)" parameter="percent of DMSO control GFP" reported=95

(Q) I am curious: what percent of DMSO control GFP value has been reported for COC(=O)c1ccc(CC(=O)c2ccc(O)cc2O)o1 ?
(A) 93.5

(Q) Give the measured percent of DMSO control GFP of O=[N+]([O-])c1ccc2cn[nH]c2c1 .
(A) 102

###

# GFP response relative to DMSO listing for each entry below
assay-notes: LAP4-GFP expression modulators in yeast, confirmation, cell-based, cherry picks, flow cytometry, mother/daughter gates (AID 2271);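 also: ratio of sample to DMSO plate mean so 100% equals DMSO level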
condition-label: S. cerevisiae LAP4-GFP strain, 3 h, measured here: mother cell gate response, at 10 µM, stronger effect = higher value, 100 means same as DMSO control
Answer shape: numeric part, then the unit.

Solved entries:
compound=CCCOc1ccc(C(=O)NNC(=S)NC(=O)c2ccccc2)cc1 reported=150%
compound="CCc1cccc(C)c1NC(=O)CC1Oc2ccc(C)cc2NC1=O (stereo unspecified)" reported=91.3%
compound=CN1CCSc2ccc(C(=O)Nc3cccc(F)c3)cc21 reported=121%
compound=C=CCNC(=O)/C(C#N)=C/c1c(N(Cc2ccccc2)Cc2ccccc2)nc2ccccn2c1=O reported=99.2%
compound=Cc1cc(Br)c2c(c1)/C(=C/C(=O)c1cccs1)C(=O)N2 reported=117%

(Q) GET /values?readout=GFP response relative to DMSO&item= O=C(O)c1ccc(/C=N/NC(=O)c2ccc(Br)cc2)cc1
(A) 98.4%

###

Below, each of the molecules is paired with its reported GFP response vs DMSO value.
assay-notes: modulators of MEP2-GFP levels in yeast, confirmation, S. cerevisiae, flow cytometry GFP, cherry picks (AID 2272);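 also: ratio of well signal to plate DMSO mean so 100% equals DMSO level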
condition-label: S. cerevisiae MEP2-GFP strain, 3 h, at 10 µM, stronger effect = higher value
Only the number, expressed in %, is required.

molecule="CCCc1[nH]nc2c1C(c1ccccc1OCC)C(C#N)=C(N)O2 (stereo not drawn)" result_units=% reported=100

(Q) Returns the measured GFP response vs DMSO for the input molecule. Input: COc1ccc(/C(C)=N/NC(=O)c2ccc(N(C)C)cc2)cc1
(A) 104

(Q) What does the record list as GFP response vs DMSO for O=C(/C=C/c1ccnc2ccccc12)c1cccs1 ?
(A) 126

(Q) If you can, please state the reported GFP response vs DMSO value of O=[N+]([O-])c1ccc(Sc2nc3ccccc3o2)c([N+](=O)[O-])c1 .
(A) 114

(Q) Which GFP response vs DMSO is listed for C[C@]12CCC(=O)C=C1CC[C@@H]1[C@@H]2C(=O)C[C@@]2(C)[C@H]1CC[C@]2(O)C(=O)CO ?
(A) 102

(Q) Consider the molecule shown here: Clc1ccc(OCCn2cnc3ccccc32)c(Cl)c1 What is its recorded GFP response vs DMSO?
(A) 89.9
